- Test system: c-Src;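 further: 11-residue human phosphosite peptides and single-mutation variants displayed on the E. coli surface, counted by deep sequencing, each peptide's frequency after selection divided by its frequency in the unselected input library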;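 further: frequency after pTyr selection over input frequency; kinase dosed for 20-30% of maximal phosphorylation in three min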
- test_summary: phosphorylation enrichment, bacterial display (enrichment ratio); higher = better substrate or ligand; peptides without Tyr show the background
assay_readout: phosphorylation enrichment

[[record]]
sequence_text = "HKLSSYEFDFE [BTK_Y40_Y39S_YF]"
readout_value = 1.09

[[record]]
sequence_text = "LVRPPYSFSAL [FOXI1_Y126_YF]"
readout_value = 0.409

[[record]]
sequence_text = "PASWTYVRWFD [PTDSS1_Y274]"
readout_value = 1.01

[[record]]
sequence_text = "AGRTGYDNREI [BCL2_Y9]"
readout_value = 0.537

[[record]]
sequence_text = "AATTAYSKPKR [MAP3K7_Y405]"
readout_value = 0.354

[[record]]
sequence_text = "RSGIFYKPESL [L2HGDH_Y103_H98R_YF]"
readout_value = 0.751

[[record]]
sequence_text = "PPVVNYEQDAR [FER_Y402_E404Q]"
readout_value = 0.646

[[record]]
sequence_text = "QGIIIYKAAYF [SLC25A4_Y187_R188K]"
readout_value = 1.06

[[record]]
sequence_text = "LRNIDYHRLDG [ATRX_Y2083_Y2084H]"
readout_value = 0.297

[[record]]
sequence_text = "LERFIYNPEEF [HLA-DPB1_Y59_R61P_YF]"
readout_value = 2.4

[[record]]
sequence_text = "SSVAGYACLAF [MVD_Y131_A128V_YF]"
readout_value = 0.519

[[record]]
sequence_text = "CTTIHYNFMCD [TP53_Y234_N239D_YF]"
readout_value = 0.538

[[record]]
sequence_text = "DAHFTYSRFPW [LY75_Y888_D884A_YF]"
readout_value = 5.62

[[record]]
sequence_text = "DVMDFYKTLRG [NR3C1_Y30]"
readout_value = 0.342

[[record]]
sequence_text = "RDLRTYIMPAH [PNMT_Y256]"
readout_value = 0.623

[[record]]
sequence_text = "NHRNQYQALKT [CLSPN_Y887_P892T]"
readout_value = 0.364

[[record]]
sequence_text = "EWKNNCPRLRE [OPA1_Y582_Y582C]"
readout_value = 0.411

[[record]]
sequence_text = "RTIPDYTSFNT [EPHB2_Y912]"
readout_value = 0.923

[[record]]
sequence_text = "KVVVPYEPPEV [TP53_Y220_S215K]"
readout_value = 0.408

[[record]]
sequence_text = "ADLAKYICENR [ALB_Y287_Q292R]"
readout_value = 0.467

[[record]]
sequence_text = "KTVQDYLEKFY [MMP8_Y36]"
readout_value = 0.674

[[record]]
sequence_text = "RFLERYIYNRE [HLA-DPB1_Y57]"
readout_value = 0.849

[[record]]
sequence_text = "QYKGKYLAKHN [CASK_Y712_D710G]"
readout_value = 0.519

[[record]]
sequence_text = "VKMLEYRGKDV [CASP5_Y74_L75R]"
readout_value = 0.465

[[record]]
sequence_text = "ERDTVYSSSGV [NELL2_Y350_N347D]"
readout_value = 1.79

[[record]]
sequence_text = "GLRCGYGVLGG [KRTAP20-2_Y15_Y13C]"
readout_value = 0.73

[[record]]
sequence_text = "SHNKFYMLVAH [MFSD8_Y134_R139H_YF]"
readout_value = 0.447

[[record]]
sequence_text = "PEIIAYQPFGK [PRKCG_Y529_YF]"
readout_value = 1.07

[[record]]
sequence_text = "PICEGYALPHA [ACTC1_Y171_Y168C]"
readout_value = 0.406

